Data origin, for the record: patent US20180208675A1

- experimental target: human TFPI alpha (full-length TFPIα) (human, UniProt P10646 29-304)
- assay remarks: cell-based or functional assay
Reported thrombin peak (nM) at 12.5 nM, FVIII-neutralised plasma + 2 nM TFPIα by item:
Unit nM implied. Number only.

Example cases with answers are listed next.
binder: mAb 2021 (antibody, human IgG4 S228P, kappa, V domains shown) VH: EVQLVESGGGLVKPGGSLRLSCAASGFTFSNYAMSWVRQTPEKRLEWVATISRSGSYSYFPDSVQGRFTISRDNAKNSLYLQMNSLRAEDTAVYYCARLGGYDEGDAMDSWGQGTTVTVSS VL: DIVMTQTPLSLSVTPGQPASISCKSSQSLLESDGKTYLNWYLQKPGQSPQLLIYLVSILDSGVPDRFSGSGSGTDFTLKISRVEAEDVGVYYCLQATHFPQTFGGGTKVEIKR
quantity unit: nM
experimental result: 61.7
//
binder: Fab 0094 (Fab fragment of mAb 2007) (Fab, V domains shown, KPI-2 specific) VH: EVQLVESGGGLVKPGGSLRLSCAASGFTFSNYAMSWVRQAPGKGLEWVSTISRSGSYSYYPDSVKGRFTISRDNAKNSLYLQMNSLRAEDTAVYYCARLGGYDEGDAMDSWGQGTTVTVSS VL: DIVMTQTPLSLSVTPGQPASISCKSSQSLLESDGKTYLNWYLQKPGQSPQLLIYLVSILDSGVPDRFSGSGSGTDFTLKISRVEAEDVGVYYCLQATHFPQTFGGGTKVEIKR
quantity unit: nM
experimental result: 10.6
//
binder: Fab 0095 (Fab fragment of mAb 2014) (Fab, V domains shown, KPI-2 specific) VH: EVQLVESGGGLVKPGGSLRLSCAASGFTFSNYAMSWVRQAPGKGLEWVSTISRSGSYSYYADSVKGRFTISRDNAKNSLYLQMNSLRAEDTAVYYCARLGGYDEGDAMDSWGQGTTVTVSS VL: DIVMTQTPLSLSVTPGQPASISCKSSQSLLESDGKTYLNWLLQRPGESPKLLIYLVSILDSGVPDRFSGSGSGTDFTLKISRVEAEDVGVYYCLQATHFPQTFGGGTKVEIKR
quantity unit: nM
experimental result: 19.4

Now look at this entry.
q: Look up and report measured thrombin peak (nM) at 12.5 nM, FVIII-neutralised plasma + 2 nM TFPIα for this entry: Fab 0088 (Fab fragment of mAb 2021) (Fab, V domains shown, free C-terminal cysteine; KPI-2 specific) VH: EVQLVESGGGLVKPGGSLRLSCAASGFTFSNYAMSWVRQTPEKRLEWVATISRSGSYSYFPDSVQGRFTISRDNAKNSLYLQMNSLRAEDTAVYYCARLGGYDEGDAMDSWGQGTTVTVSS VL: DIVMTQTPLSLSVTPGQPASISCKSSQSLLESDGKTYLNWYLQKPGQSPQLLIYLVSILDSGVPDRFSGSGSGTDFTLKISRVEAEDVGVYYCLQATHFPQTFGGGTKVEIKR
a: 64.2
